The measured values listed here are drawn from patent US20230390406A1.

- System: mouse plasma enzymes
- procedureSummary: Stability of AMC-peptides in mouse plasma (HPLC, 350 nm)
- Type: in vitro ADME
- conditionsUsed: up to 6 hrs
- Procedure: Peptide linker stock solutions (10 mM in DMSO) are diluted to 1 mM and then incubated with mouse plasma; aliquots are removed, blood proteins are precipitated with cold acetonitrile, pelleted with centrifugation, and the supernatant analyzed by HPLC. […] The stability of the analyte peptide was determined by the comparing the area-under-curve (AUC) of analyte peaks at 350 nm following formula: […]
Where a SMILES comes first, the peptide text is derived from it.
experimentalEndpoint: stability in mouse plasma

// below: answered molecules
molecule: CCC(NC(=O)[C@@H](NC(=O)[C@@H]1CCCN1C(=O)[C@H](CO)NC(=O)CCNC(C)=O)C(C)C)C(=O)Nc1ccc2c(C)cc(=O)oc2c1 (stereo partly shown) [AI, Ac-A′SPVB-AMC] (HELM PEPTIDE1{[ac].[bAla].S.P.V.[CCC(N[*:1])C(=O)[*:2]].[Cc1cc(=O)oc2cc(N[*:1])ccc12]}$$$$V2.0)
testedTarget: mouse plasma enzymes
stability in mouse plasma: metabolized quickly
--
molecule: CCC(NC(=O)[C@H](CO)NC(=O)[C@H](CCCCN)NC(=O)[C@H](CO)NC(=O)CCNC(C)=O)C(=O)Nc1ccc2c(C)cc(=O)oc2c1 (stereo partly shown) [AL, Ac-A′SKSB-AMC] (HELM PEPTIDE1{[ac].[bAla].S.K.S.[CCC(N[*:1])C(=O)[*:2]].[Cc1cc(=O)oc2cc(N[*:1])ccc12]}$$$$V2.0)
testedTarget: mouse plasma enzymes
stability in mouse plasma: significant stability
--
molecule: CCCC[C@H](NC(=O)[C@H](CO)NC(=O)[C@H](CCCCNC(C)=O)NC(=O)[C@H](CO)NC(=O)CCNC(C)=O)C(=O)Nc1ccc2c(C)cc(=O)oc2c1 [AO, Ac-A′SK(Ac) SnL-AMC] (HELM PEPTIDE1{[ac].[bAla].S.K.S.[Nle].[Cc1cc(=O)oc2cc(N[*:1])ccc12]}|PEPTIDE2{[ac]}$PEPTIDE1,PEPTIDE2,4:R3-1:R2$$$V2.0)
testedTarget: mouse plasma enzymes
stability in mouse plasma: significant stability
--
molecule: CCC(NC(=O)[C@H](CO)NC(=O)[C@H](CCCCNC(C)=O)NC(=O)[C@H](CO)NC(=O)CCNC(C)=O)C(=O)Nc1ccc2c(C)cc(=O)oc2c1 (stereo partly shown) [Compound AK, Ac-A′SK(Ac) SB-AMC] (HELM PEPTIDE1{[ac].[bAla].S.K.S.[CCC(N[*:1])C(=O)[*:2]].[Cc1cc(=O)oc2cc(N[*:1])ccc12]}|PEPTIDE2{[ac]}$PEPTIDE1,PEPTIDE2,4:R3-1:R2$$$V2.0)
testedTarget: mouse plasma enzymes
stability in mouse plasma: significant stability
--
molecule: CC[C@H](NC(=O)[C@@H](NC(=O)CCNC(C)=O)C(C)C)C(=O)Nc1ccc2c(C)cc(=O)oc2c1 [Compound AH, Ac-A′VB-AMC] (HELM PEPTIDE1{[ac].[bAla].V.[Abu].[Cc1cc(=O)oc2cc(N[*:1])ccc12]}$$$$V2.0)
testedTarget: mouse plasma enzymes
stability in mouse plasma: metabolized quickly

Next up:
Q: Quick one: stability in mouse plasma for CCCCC(NC(=O)[C@H](CO)NC(=O)[C@H](CCCCN)NC(=O)[C@H](CO)NC(=O)CCNC(C)=O)C(=O)Nc1ccc2c(C)cc(=O)oc2c1 (stereo partly shown) [AP, Ac-A′SKSnL-AMC] (HELM PEPTIDE1{[ac].[bAla].S.K.S.[CCCCC(N[*:1])C(=O)[*:2]].[Cc1cc(=O)oc2cc(N[*:1])ccc12]}$$$$V2.0) ?
Result: significant stability
